targetOfAssay: JNK3 (Homo sapiens, UniProt P53779)
Construct: purchased Eurofins Pharma Discovery (KINOMEscan service)
Sequence (P53779 whole entry): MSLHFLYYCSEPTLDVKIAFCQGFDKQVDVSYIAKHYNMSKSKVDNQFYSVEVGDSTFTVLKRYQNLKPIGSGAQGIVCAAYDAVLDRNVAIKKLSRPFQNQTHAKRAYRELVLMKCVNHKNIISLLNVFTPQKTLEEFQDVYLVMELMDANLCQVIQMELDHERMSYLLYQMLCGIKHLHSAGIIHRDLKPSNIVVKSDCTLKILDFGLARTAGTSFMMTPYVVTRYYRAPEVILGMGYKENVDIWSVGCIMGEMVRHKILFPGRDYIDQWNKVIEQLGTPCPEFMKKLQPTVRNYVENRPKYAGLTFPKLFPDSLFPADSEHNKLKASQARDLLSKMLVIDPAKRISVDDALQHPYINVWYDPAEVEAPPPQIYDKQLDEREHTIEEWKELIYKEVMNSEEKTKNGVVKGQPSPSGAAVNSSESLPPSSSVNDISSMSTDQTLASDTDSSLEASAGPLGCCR
assayOverview: KINOMEscan JNK3 binding (Kd)
setupConditions: ratio of Kd values
Give measured Selectivity Index JNK1/JNK3 for each item. Keep answers brief.
One number for each entry.

Field: Selectivity Index JNK1/JNK3. Fill in for each record below.
1. Cc1ccc2c(c1)-n1c(nc3ccccc3c1=O)C2=NO
2. CCc1ccc2c(c1)C(=NO)c1nc3ccccc3c(=O)n1-2
3. O=c1c2ccc(F)cc2nc2n1-c1ccccc1C2=NO
4. Cc1cccc2c1C(=NO)c1nc3ccccc3c(=O)n1-2
5. O=C(ON=C1c2ccccc2-n2c1nc1ccccc1c2=O)c1ccc2c(c1)OCO2
6. COc1ccc2c(c1)-n1c(nc3cc(OC)ccc3c1=O)C2=NO

A)
1: 2.9; 2: 5.3; 3: 2.6; 4: 15.5; 5: 1.7; 6: 1.4

Field: Selectivity Index JNK1/JNK3. Fill in for each record below.
1. O=c1c2cc(Br)ccc2nc2n1-c1ccccc1C2=NO
2. O=c1c2ccccc2nc2n1-c1ccc(Br)cc1C2=NO
3. Cc1ccc2c(c1)C(=NO)c1nc3ccc(C)cc3c(=O)n1-2
4. C#CCOC(=O)ON=C1c2ccccc2-n2c1nc1ccccc1c2=O
5. COC(=O)ON=C1c2ccccc2-n2c1nc1ccccc1c2=O

A)
2.2
7.8
4.3
3.0
2.4

* * *

targetOfAssay: JNK1 (Homo sapiens, UniProt P45983)
Construct: purchased Eurofins Pharma Discovery (KINOMEscan service)
Sequence (P45983 whole entry): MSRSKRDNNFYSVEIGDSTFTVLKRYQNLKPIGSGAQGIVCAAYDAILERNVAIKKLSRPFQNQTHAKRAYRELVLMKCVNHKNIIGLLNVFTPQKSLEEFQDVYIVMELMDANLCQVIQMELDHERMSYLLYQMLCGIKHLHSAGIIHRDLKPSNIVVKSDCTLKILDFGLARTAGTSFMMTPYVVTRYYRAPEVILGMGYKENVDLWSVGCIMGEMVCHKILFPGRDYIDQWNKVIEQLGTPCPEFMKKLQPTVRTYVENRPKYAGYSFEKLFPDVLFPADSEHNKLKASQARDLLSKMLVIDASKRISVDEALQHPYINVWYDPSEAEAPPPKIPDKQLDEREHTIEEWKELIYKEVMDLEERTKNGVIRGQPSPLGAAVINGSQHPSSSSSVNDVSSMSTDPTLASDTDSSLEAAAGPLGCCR
assayOverview: KINOMEscan JNK1 binding (Kd)
setupConditions: 12-point series, max 33 μM, duplicate
reportedEndpoint: Kd

Q) Provide Kd value for the following compound: C#CCOC(=O)ON=C1c2ccccc2-n2c1nc1ccccc1c2=O
A) 0.95 µM

Field: Kd. Fill in for each record below.
1. O=c1c2cc([N+](=O)[O-])ccc2nc2n1-c1ccccc1C2=NO
2. O=c1c2cc(Br)ccc2nc2n1-c1ccc(Br)cc1C2=NO
3. O=c1c2ccccc2nc2n1-c1ccc([N+](=O)[O-])cc1C2=NO
4. O=c1c2cc(C(F)(F)F)ccc2nc2n1-c1ccccc1C2=NO

A)
["> 30 µM", "> 30 µM", "> 30 µM", "> 30 µM"]

* * *

targetOfAssay: JNK2 (Homo sapiens)
Construct: purchased Eurofins Pharma Discovery (KINOMEscan service)
assayOverview: KINOMEscan JNK2 binding (Kd)
setupConditions: 12-point series, max 33 μM, duplicate
reportedEndpoint: pKd
Numbers only, as −log10 of the molar value.

A selection of reference data follows.
Q) Provide pKd value for the following molecule: O=c1c2cc(Br)ccc2nc2n1-c1ccccc1C2=NO [Compound 4j]
A) 5.13

Q) Provide pKd value for the following molecule: CCc1ccc2c(c1)C(=NO)c1nc3ccccc3c(=O)n1-2 [Compound 4c]
A) 5.89

Q) Provide pKd value for the following molecule: O=C(ON=C1c2ccccc2-n2c1nc1ccccc1c2=O)c1ccc2c(c1)OCO2 [Compound 5e]
A) 5.82

Q) Provide pKd value for the following molecule: Cc1ccc2c(c1)C(=NO)c1nc3ccc(C)cc3c(=O)n1-2 [Compound 4o]
A) 5.16

Field: pKd. Fill in for each record below.
1. Cc1cccc2c1C(=NO)c1nc3ccccc3c(=O)n1-2 [Compound 4g]
2. Cc1ccc2c(c1)-n1c(nc3ccccc3c1=O)C2=NO [Compound 4h]
3. C#CCOC(=O)ON=C1c2ccccc2-n2c1nc1ccccc1c2=O [Compound 5d]

A)
4.85
6.24
5.80

Q) Provide pKd value for the following molecule: COc1ccc2c(c1)-n1c(nc3cc(OC)ccc3c1=O)C2=NO [Compound 4r]
A) 5.24

* * *

targetOfAssay: JNK1 (Homo sapiens, UniProt P45983)
Construct: purchased Eurofins Pharma Discovery (KINOMEscan service)
assayOverview: KINOMEscan JNK1 binding (Kd)
setupConditions: 12-point series, max 33 μM, duplicate
Give measured Kd for each item. Keep answers brief.

A selection of reference data follows.
Q) State recorded Kd with JNK1 (Homo sapiens, UniProt P45983), entry CCOC(=O)C(ON=C1c2ccccc2-n2c1nc1ccccc1c2=O)C(=O)OCC , no comment.
A) 16.5 µM

Q) State recorded Kd with JNK1 (Homo sapiens, UniProt P45983), entry O=c1c2ccccc2nc2n1-c1ccc(Br)cc1C2=NO , no comment.
A) 3.2 µM

Q) State recorded Kd with JNK1 (Homo sapiens, UniProt P45983), entry Cc1cccc2c1C(=NO)c1nc3ccccc3c(=O)n1-2 , no comment.
A) 6.2 µM

Q) State recorded Kd with JNK1 (Homo sapiens, UniProt P45983), entry O=c1c2ccc(F)cc2nc2n1-c1ccccc1C2=NO , no comment.
A) 1.1 µM

Q) State recorded Kd with JNK1 (Homo sapiens, UniProt P45983), entry Cc1cccc2c1C(=NO)c1nc3cccc(C)c3c(=O)n1-2 , no comment.
A) > 30 µM

Q) State recorded Kd with JNK1 (Homo sapiens, UniProt P45983), entry Cc1ccc2c(c1)-n1c(nc3ccccc3c1=O)C2=NO , no comment.
A) 0.67 µM

Q) State recorded Kd with JNK1 (Homo sapiens, UniProt P45983), entry CCc1ccc2c(c1)C(=NO)c1nc3ccccc3c(=O)n1-2 , no comment.
A) 2.6 µM

Q) State recorded Kd with JNK1 (Homo sapiens, UniProt P45983), entry O=c1c2ccc([N+](=O)[O-])cc2nc2n1-c1ccccc1C2=NO , no comment.
A) > 30 µM

Q) State recorded Kd with JNK1 (Homo sapiens, UniProt P45983), entry O=c1c2ccc(Br)cc2nc2n1-c1cc(Br)ccc1C2=NO , no comment.
A) > 30 µM

Q) State recorded Kd with JNK1 (Homo sapiens, UniProt P45983), entry COc1ccc2c(c1)C(=NO)c1nc3ccc(OC)cc3c(=O)n1-2 , no comment.
A) > 30 µM

Field: Kd. Fill in for each record below.
1. O=c1c2c(Br)cccc2nc2n1-c1cccc(Br)c1C2=NO
2. O=C(ON=C1c2ccccc2-n2c1nc1ccccc1c2=O)c1ccc2c(c1)OCO2
3. O=c1c2ccccc2nc2n1-c1ccc(-c3ccccc3)cc1C2=NO
4. COc1ccc2c(c1)C(=NO)c1nc3ccccc3c(=O)n1-2
5. Cc1ccc2c(c1)C(=NO)c1nc3ccc(C)cc3c(=O)n1-2
6. COc1ccc2c(c1)-n1c(nc3cc(OC)ccc3c1=O)C2=NO
7. O=c1c2cc(Br)ccc2nc2n1-c1ccc([N+](=O)[O-])cc1C2=NO

A)
> 30 µM
0.47 µM
> 30 µM
> 30 µM
3.7 µM
4.6 µM
> 30 µM

* * *

targetOfAssay: JNK2 (Homo sapiens, UniProt P45984)
Construct: purchased Eurofins Pharma Discovery (KINOMEscan service)
Sequence (P45984 whole entry): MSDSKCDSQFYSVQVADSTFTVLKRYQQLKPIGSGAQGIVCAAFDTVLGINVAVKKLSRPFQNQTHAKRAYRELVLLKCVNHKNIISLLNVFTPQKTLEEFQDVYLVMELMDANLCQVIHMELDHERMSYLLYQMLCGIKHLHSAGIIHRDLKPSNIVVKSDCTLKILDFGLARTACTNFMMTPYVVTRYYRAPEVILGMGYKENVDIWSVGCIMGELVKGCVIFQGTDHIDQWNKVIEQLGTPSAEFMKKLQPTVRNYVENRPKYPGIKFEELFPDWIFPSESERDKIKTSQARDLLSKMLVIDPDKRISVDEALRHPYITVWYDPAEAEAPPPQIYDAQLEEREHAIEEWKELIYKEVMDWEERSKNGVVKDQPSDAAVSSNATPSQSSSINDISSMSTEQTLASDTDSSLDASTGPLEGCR
assayOverview: KINOMEscan JNK2 binding (Kd)
setupConditions: 12-point series, max 33 μM, duplicate
reportedEndpoint: pKd
Answers are plain numbers, as −log10 of the molar value.

Q) Provide pKd value for the following compound: O=c1c2ccc(F)cc2nc2n1-c1ccccc1C2=NO [Compound 4l]
A) 6.14

Q) Provide pKd value for the following compound: COC(=O)ON=C1c2ccccc2-n2c1nc1ccccc1c2=O [Compound 5c]
A) 5.55

Then there is this compound:
Q) Provide pKd value for the following compound: O=c1c2ccccc2nc2n1-c1ccc(Br)cc1C2=NO [Compound 4b]
A) 5.07

* * *

targetOfAssay: JNK3 (Homo sapiens, UniProt P53779)
Construct: purchased Eurofins Pharma Discovery (KINOMEscan service)
assayOverview: KINOMEscan JNK3 binding (Kd)
setupConditions: ratio of Kd values
Give measured Selectivity Index JNK2/JNK3 for each item. Keep answers brief.

Q) Provide Selectivity Index JNK2/JNK3 value for the following compound: O=c1c2ccccc2nc2n1-c1ccc([N+](=O)[O-])cc1C2=NO
A) >40

Field: Selectivity Index JNK2/JNK3. Fill in for each record below.
1. O=c1c2cc(Br)ccc2nc2n1-c1ccccc1C2=NO
2. Cc1ccc2c(c1)C(=NO)c1nc3ccc(C)cc3c(=O)n1-2
3. Cc1cccc2c1C(=NO)c1nc3ccccc3c(=O)n1-2

A)
1: 3.9; 2: 7.9; 3: 35

Field: Selectivity Index JNK2/JNK3. Fill in for each record below.
1. O=c1c2ccc([N+](=O)[O-])cc2nc2n1-c1ccccc1C2=NO
2. O=c1c2cc([N+](=O)[O-])ccc2nc2n1-c1ccccc1C2=NO
3. COC(=O)ON=C1c2ccccc2-n2c1nc1ccccc1c2=O
4. COc1ccc2c(c1)-n1c(nc3cc(OC)ccc3c1=O)C2=NO
5. O=c1c2ccc(F)cc2nc2n1-c1ccccc1C2=NO

A)
>5.6
>3.9
4.0
1.8
1.7

* * *

targetOfAssay: JNK3 (Homo sapiens)
Construct: purchased Eurofins Pharma Discovery (KINOMEscan service)
assayOverview: KINOMEscan JNK3 binding (Kd)
setupConditions: KINOMEscan, 12-point series, max 33 μM, duplicate
Give measured Kd for each item. Keep answers brief.
Numbers only, in nM.

A selection of reference data follows.
Q) Provide Kd value for the following compound: Cc1ccc2c(c1)C(=NO)c1nc3ccc(C)cc3c(=O)n1-2 [Compound 4o]
A) 870

Q) Provide Kd value for the following compound: O=c1c2cc([N+](=O)[O-])ccc2nc2n1-c1ccccc1C2=NO [Compound 4n]
A) 8700

Q) Provide Kd value for the following compound: CCc1ccc2c(c1)C(=NO)c1nc3ccccc3c(=O)n1-2 [Compound 4c]
A) 490

Continuing:
Q) Provide Kd value for the following compound: O=c1c2ccccc2nc2n1-c1ccc(Br)cc1C2=NO [Compound 4b]
A) 410
